Target: CLK1 (Homo sapiens, UniProt P49759)
Construct: GST-fusion or His-tag (not specified per kinase); purchased ProQinase GmbH; host or cells: Sf9 insect cells or E. coli (not specified per kinase)
Sequence (P49759 whole entry, the tested form may be a part): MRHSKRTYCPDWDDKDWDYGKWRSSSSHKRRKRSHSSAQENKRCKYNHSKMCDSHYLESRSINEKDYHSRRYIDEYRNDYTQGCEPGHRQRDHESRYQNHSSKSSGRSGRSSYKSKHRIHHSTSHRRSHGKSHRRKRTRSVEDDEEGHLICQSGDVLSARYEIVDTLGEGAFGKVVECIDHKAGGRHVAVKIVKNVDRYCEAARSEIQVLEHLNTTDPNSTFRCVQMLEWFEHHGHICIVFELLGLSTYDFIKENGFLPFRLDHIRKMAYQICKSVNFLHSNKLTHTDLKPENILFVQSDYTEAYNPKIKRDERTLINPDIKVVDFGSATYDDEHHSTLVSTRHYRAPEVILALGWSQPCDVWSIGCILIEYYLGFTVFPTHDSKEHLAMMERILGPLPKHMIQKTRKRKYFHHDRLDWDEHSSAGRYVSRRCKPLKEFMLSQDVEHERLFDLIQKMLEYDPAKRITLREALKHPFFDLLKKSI
Assay: Radiometric protein kinase assay (33PanQinase Activity Assay), CLK1
Assay type: biochemical
Settings: class by IC50 on CLK1, from dose-response curves; read-out: Potency Class CLK1
Experimental: Assays were performed by ProQinase GmbH (Engesserstr. 4, D-79108 Freiburg, Germany. www.proqinase.com). The IC50 profile of all compounds was determined using 12 protein kinases (CDK2/cyclin E, CK1ε, CLK1, 2, 3, 4, DYRK1A, 1B, 2, 3, 4, GSK3β). […] The reaction cocktails were incubated at 30° C. for 60 minutes. […] Incorporation of ^33Pi was determined with a microplate scintillation counter (Microbeta, Wallac). The IC50 values for all compounds were calculated from the dose response curves […]
pIC50: −log10 of the molar value. Structures can show the parent of a compound that is named as a salt.
Assay endpoint: pIC50

# Compound, pIC50
measured = [
    ("O=C1NC(NC2CCCCC2)=N/C1=C\\c1ccc2cnccc2c1 [Compound 75]", "< 7.30"),
    ("Cc1cnc(CNC2=N/C(=C\\c3ccc4cnccc4c3)C(=O)N2)cn1 [Compound 64]", "< 7.30"),
    ("COC[C@H](NC1=N/C(=C\\c2ccc3ncncc3c2)C(=O)N1)c1ccccc1 [Compound 69]", "7.60 to 8.00"),
    ("NC[C@H](NC1=N/C(=C\\c2ccc3nccnc3c2)C(=O)N1)c1ccccc1 [Compound 28, dihydrochloride]", "7.30 to 7.60"),
    ("CN1CCN(c2ccc(NC3=N/C(=C\\c4ccc5nccnc5c4)C(=O)N3)cc2)CC1 [Compound 33]", "< 7.30"),
]

Ask: Give the reported pIC50 for this compound. O=C1NC(NC2CCCCCC2)=N/C1=C\c1ccc2cnccc2c1 [Compound 57]
Reply: < 7.30

Ask: Give the reported pIC50 for this compound. CC(C)C[C@H](CF)NC1=N/C(=C\c2ccc3nccnc3c2)C(=O)N1 [Compound 14]
Reply: < 7.30

Ask: Give the reported pIC50 for this compound. COC[C@@H](CC(C)C)NC1=N/C(=C\c2ccc3ncncc3c2)C(=O)N1 [Compound 78]
Reply: < 7.30

Ask: Give the reported pIC50 for this compound. O=C1NC(N[C@@H]2CCOC2)=N/C1=C\c1ccc2cnccc2c1 [Compound 66]
Reply: < 7.30

---

Target: CLK1 (Homo sapiens, UniProt P49759)
Construct: GST-fusion or His-tag (not specified per kinase); purchased ProQinase GmbH; host or cells: Sf9 insect cells or E. coli (not specified per kinase)
Assay: Radiometric protein kinase assay (33PanQinase Activity Assay), CLK1
Type: biochemical
Conditions: read-out: IC50 on CLK1 (most potent CLK1 inhibitors)
pIC50: −log10 of the molar value.
Assay endpoint: pIC50

# Query smiles, Result
data = [
    ("O=C1NC(NC23CC4CC(CC(F)(C4)C2)C3)=N/C1=C\\c1ccc2nccnc2c1", "≥ 8.00"),
]

Here's the next entry for you.
Ask: Give the reported pIC50 for this compound. O=C1NC(NC23CC4CC(CC(C4)C2)C3)=N/C1=C\c1ccc2ncccc2n1
Reply: ≥ 8.00

---

Target: CLK1 (Homo sapiens, UniProt P49759)
Construct: GST-fusion or His-tag (not specified per kinase); purchased ProQinase GmbH; host or cells: Sf9 insect cells or E. coli (not specified per kinase)
Assay: Radiometric protein kinase assay (33PanQinase Activity Assay), CLK1
Type: biochemical
Conditions: IC50 class A to E; read-out: Potency Class CLK1
pIC50: −log10 of the molar value.
Assay endpoint: pIC50

Solved entries (count: 6):
# Query smiles, pIC50
rows = [
    ("O=C1NC(NC23CC4CC(CC(C4)C2)C3)=N/C1=C\\c1ccc2ncccc2c1", "7.60 to 8.00"),
    ("COC[C@H](NC1=N/C(=C\\c2ccc3ncncc3c2)C(=O)N1)c1ccccc1", "7.60 to 8.00"),
    ("O=C1NC(NC23CC4CC(CC(O)(C4)C2)C3)=N/C1=C\\c1ccc2nccnc2c1", "7.60 to 8.00"),
    ("CC(C)C[C@H](CO)NC1=N/C(=C\\c2ccc3nccnc3c2)C(=O)N1", "7.30 to 7.60"),
    ("O=C1NC(NC23CC4CC(CC(F)(C4)C2)C3)=N/C1=C\\c1ccc2nccnc2c1", "7.60 to 8.00"),
    ("O=C1NC(NC23CC4CC(CC2C4)C3)=N/C1=C\\c1ccc2ncccc2c1", "7.60 to 8.00"),
]

Ask: Give the reported pIC50 for this molecule. O=C1NC(NC23CC4CC(CC2C4)C3)=N/C1=C\c1ccc2nccnc2c1
Reply: < 7.30

Ask: Give the reported pIC50 for this molecule. COC12CC3CC(CC(NC4=N/C(=C\c5ccc6nccnc6c5)C(=O)N4)(C3)C1)C2
Reply: 7.60 to 8.00

---

Biological target: CLK1 (Homo sapiens)
Construct: GST-fusion or His-tag (not specified per kinase); purchased ProQinase GmbH; host or cells: Sf9 insect cells or E. coli (not specified per kinase)
Experiment: Radiometric protein kinase assay (33PanQinase Activity Assay), CLK1
Assay type: biochemical
Settings: class by IC50 on CLK1, from dose-response curves; read-out: Potency Class CLK1
Assay endpoint: IC50

# Molecule, Result
measured = [
    ("COC[C@H](NC1=N/C(=C\\c2ccc3cnncc3c2)C(=O)N1)c1ccccc1", "> 50 nM"),
]

Here's the next entry for you.
Ask: Give the reported IC50 for this molecule. COC[C@H](NC1=N/C(=C\c2ccc3ncccc3n2)C(=O)N1)c1ccccc1
Reply: 10 to 25 nM

---

Target: DYRK1A (Homo sapiens, UniProt Q13627)
Construct: GST-fusion or His-tag (not specified per kinase); purchased ProQinase GmbH; host or cells: Sf9 insect cells or E. coli (not specified per kinase)
Assay: Radiometric protein kinase assay (33PanQinase Activity Assay), DYRK1A
Assay type: biochemical
Conditions: class by IC50 on DYRK1A, from dose-response curves; read-out: Potency Class DYRK1A
Assay endpoint: IC50

Solved entries (count: 4):
# Molecule, IC50
measured = [
    ("O=C1NC(NC23CC4CC(CC(C4)C2)C3)=N/C1=C\\c1ccc2ncccc2n1 [Compound 70]", "< 5 nM"),
    ("O=C1NC(N[C@@H]2CCOC2)=N/C1=C\\c1ccc2nccnc2c1 [Compound 37]", "> 50 nM"),
    ("O=C1NC(N[C@H]2c3ccccc3C[C@@H]2O)=N/C1=C\\c1ccc2nccnc2c1 [Compound 23]", "10 to 25 nM"),
    ("O=C1NC(NC2CCCCC2)=N/C1=C\\c1ccc2ncccc2n1 [Compound 79]", "25 to 50 nM"),
]

Here's the next entry for you.
Ask: Give the reported IC50 for this molecule. COC[C@H](NC1=N/C(=C\c2ccc3nccnc3c2)C(=O)N1)c1ccccc1 [Compound 26]
Reply: > 50 nM

---

Molecular target: DYRK4 (Homo sapiens)
Construct: GST-fusion or His-tag (not specified per kinase)
Sequence (Q9NR20 whole entry, the tested form may be a part): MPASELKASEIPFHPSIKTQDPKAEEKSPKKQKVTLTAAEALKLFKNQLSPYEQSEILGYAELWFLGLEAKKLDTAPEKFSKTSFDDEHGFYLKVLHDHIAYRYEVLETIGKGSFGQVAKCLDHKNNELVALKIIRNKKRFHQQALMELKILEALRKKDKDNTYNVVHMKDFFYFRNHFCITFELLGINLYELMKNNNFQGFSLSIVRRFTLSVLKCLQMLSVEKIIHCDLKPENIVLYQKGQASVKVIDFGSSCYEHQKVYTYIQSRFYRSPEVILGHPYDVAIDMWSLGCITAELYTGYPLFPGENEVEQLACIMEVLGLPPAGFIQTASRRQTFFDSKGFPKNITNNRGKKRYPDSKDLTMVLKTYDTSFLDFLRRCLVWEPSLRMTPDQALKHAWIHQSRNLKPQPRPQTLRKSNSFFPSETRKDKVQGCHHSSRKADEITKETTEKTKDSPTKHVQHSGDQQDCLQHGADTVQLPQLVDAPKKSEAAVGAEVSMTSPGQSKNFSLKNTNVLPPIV
Experiment: Radiometric protein kinase assay (33PanQinase Activity Assay), DYRK4
Details: read-out: IC50 on DYRK4 (most potent DYRK4 inhibitors)
pIC50: −log10 of the molar value.
# reported pIC50; entries follow

# Compound, pIC50
records = [
    ("O=C1NC(NC23CC4CC(CC2C4)C3)=N/C1=C\\c1ccc2nccnc2c1 [Compound 16]", "≥ 6.52"),
]

Here's the next entry for you.
Ask: Give the reported pIC50 for this compound. O=C1NC(NC23CC4CC(CC(O)(C4)C2)C3)=N/C1=C\c1ccc2ncccc2c1 [Compound 50]
Reply: ≥ 6.52

---

Target: DYRK1A (Homo sapiens)
Construct: GST-fusion or His-tag (not specified per kinase); purchased ProQinase GmbH; host or cells: Sf9 insect cells or E. coli (not specified per kinase)
Assay: Radiometric protein kinase assay (33PanQinase Activity Assay), DYRK1A
Type: biochemical
Settings: IC50 class A to E; read-out: Potency Class DYRK1A
pIC50: −log10 of the molar value.
# reported pIC50; entries follow

Solved entries (count: 9):
# Query smiles, pIC50
records = [
    ("O=C1NC(NC23CC4CC(CC2C4)C3)=N/C1=C\\c1ccc2nccnc2c1", "8.00 to 8.30"),
    ("COC[C@H](NC1=N/C(=C\\c2ccc3ncccc3n2)C(=O)N1)c1ccccc1", "< 7.30"),
    ("CC(C)C[C@H](CO)NC1=N/C(=C\\c2ccc3nccnc3c2)C(=O)N1", "8.00 to 8.30"),
    ("O=C1NC(NC23CC4CC(CC(O)(C4)C2)C3)=N/C1=C\\c1ccc2ncccc2c1", "≥ 8.30"),
    ("O=C1NC(NC23CC4CC(CC(F)(C4)C2)C3)=N/C1=C\\c1ccc2nccnc2c1", "≥ 8.30"),
    ("O=C1NC(NC23CC4CC(CC(C4)C2)C3)=N/C1=C\\c1ccc2ncccc2n1", "≥ 8.30"),
    ("O=C1NC(NC23CC4CC(CC(O)(C4)C2)C3)=N/C1=C\\c1ccc2nccnc2c1", "≥ 8.30"),
    ("O=C1NC(NC23CC4CC(CC2C4)C3)=N/C1=C\\c1ccc2ncccc2c1", "8.00 to 8.30"),
    ("COC12CC3CC(CC(NC4=N/C(=C\\c5ccc6nccnc6c5)C(=O)N4)(C3)C1)C2", "≥ 8.30"),
]

Ask: Send back DYRK1A (Homo sapiens) pIC50 of COC[C@H](NC1=N/C(=C\c2ccc3ncncc3c2)C(=O)N1)c1ccccc1 only.
Reply: ≥ 8.30

These data points were gathered from patent US20250340538A1.
